Please respond with reported EC50 for every item in the list.
- Test system: primary human mesenchymal stem cells (hMSCs)
- Experiment description: Chondrogenesis screening using primary human mesenchymal stem cells
- Assay type: cell-based
- Test parameters: Homo sapiens, Mesenchymal stem cells, hMSC chondrogenesis; concentration required to induce 50% levels of chondrogenesis with TGF-β3 as positive control; read-out: Conc (nM) of 50% TGF-β3 activity
Answers are plain numbers, in nM.

The cases that follow already have their EC50 on record.
1) CC(C)Nc1cncc(-c2ccc3[nH]nc(-c4nc5c(-c6ccoc6)cncc5[nH]4)c3n2)c1: 30
2) CC(C)Oc1ccc(NC(=O)c2n[nH]c3ccc(-c4cncc(CN5CC6CC(C5)O6)c4)cc23)cn1: 30
3) CCNCc1cncc(-c2cc3c(-c4nc5c(-c6ccsc6)nccc5[nH]4)n[nH]c3cn2)c1: 30

Working through the 4 compounds below one at a time, give EC50 for each.
1. O=C(Nc1cncc(-c2ccc3[nH]nc(-c4nc5c(-c6ccncc6)ccnc5[nH]4)c3n2)c1)C1CCCCC1
2. c1cncc(-c2ccc3[nH]nc(-c4nc5c(-c6cccnc6)cncc5[nH]4)c3n2)c1
3. c1cc(-c2ccnc3[nH]c(-c4n[nH]c5ccc(-c6cncc(CNCC7CCCC7)c6)nc45)cc23)ccn1
4. Cc1ccc(-c2cncc3[nH]c(-c4n[nH]c5cnc(-c6cncc(NC(=O)C7CCC7)c6)cc45)nc23)s1

## Output
10
30
100
100

Working through the 5 compounds below one at a time, give EC50 for each.
1. Nc1cncc(-c2ccc3[nH]nc(-c4nc5c(-c6ccccc6F)nccc5[nH]4)c3c2)c1
2. CC(C)(C)CC(=O)Nc1cncc(-c2cc3c(-c4cc5cnccc5[nH]4)n[nH]c3cn2)c1
3. CCCCC(=O)Nc1cncc(-c2cc3c(-c4cc5c(-c6cccnc6)ccnc5[nH]4)n[nH]c3cn2)c1
4. CCNCc1cncc(-c2cc3c(-c4cc5c(-c6ccccc6F)ccnc5[nH]4)n[nH]c3cn2)c1
5. CN(C)Cc1cncc(-c2cc3c(-c4nc5c(-c6cccc(F)c6)cccc5[nH]4)n[nH]c3cn2)c1

## Output
[100, 10, 10, 30, 100]

Working through the 3 compounds below one at a time, give EC50 for each.
1. CCCC(=O)Nc1cncc(-c2cc3c(-c4cc5c(-c6cc(F)cc(NCCN(C)C)c6)ccnc5[nH]4)n[nH]c3cn2)c1
2. O=C(Nc1cncc(-c2cc3c(-c4cc5c(-c6cccnc6)cccc5[nH]4)n[nH]c3cn2)c1)C1CC1
3. Cc1n[nH]c2ccc(-c3cncc(OC4CCNC[C@H]4F)n3)cc12 (stereo partly drawn)

## Output
1: 10; 2: 100; 3: 30
